target: T1, human vascular endothelial growth factor receptor-2 Fc chimera (KDR-Fc) (human, UniProt P35968 20-764); assay: radioactive equilibrium binding assay, 1 nM KDR-Fc, % of input bound
T1 construct: range 1-764; also called human VEGFR-2; not shown: human IgG1 Fc
T1 sequence (P35968 20-764 limits assumed, change not shown, form in doubt): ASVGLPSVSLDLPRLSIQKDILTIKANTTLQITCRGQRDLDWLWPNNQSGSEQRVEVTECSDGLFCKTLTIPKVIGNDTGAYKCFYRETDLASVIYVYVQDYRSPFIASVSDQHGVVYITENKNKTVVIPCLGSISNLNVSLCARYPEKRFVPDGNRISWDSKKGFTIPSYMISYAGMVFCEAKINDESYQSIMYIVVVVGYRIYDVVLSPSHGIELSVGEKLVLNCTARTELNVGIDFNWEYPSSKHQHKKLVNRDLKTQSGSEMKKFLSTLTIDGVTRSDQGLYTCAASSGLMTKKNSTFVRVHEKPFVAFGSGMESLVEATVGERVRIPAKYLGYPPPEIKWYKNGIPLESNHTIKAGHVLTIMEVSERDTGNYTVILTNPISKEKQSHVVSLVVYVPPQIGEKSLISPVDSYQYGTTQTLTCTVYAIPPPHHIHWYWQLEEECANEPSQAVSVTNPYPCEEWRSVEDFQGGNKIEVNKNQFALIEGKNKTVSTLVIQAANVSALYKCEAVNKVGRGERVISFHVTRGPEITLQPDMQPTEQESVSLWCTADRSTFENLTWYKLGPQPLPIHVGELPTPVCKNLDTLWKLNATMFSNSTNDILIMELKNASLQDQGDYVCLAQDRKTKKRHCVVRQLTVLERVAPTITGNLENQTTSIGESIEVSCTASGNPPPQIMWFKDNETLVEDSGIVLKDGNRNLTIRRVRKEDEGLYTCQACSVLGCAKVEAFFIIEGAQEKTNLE
Label true (1) when Binding to 1 nM KDR, % is at or above 30%; otherwise label false (0).

Here are 3 binders together with their reported answers.
F11 (designed binder, 10Fn3 clone, Del 1-8) EVVAATPTSLLISWRHPHFPTRYYRITYGETGGNSPVQEFTVPLQPPTATISGLKPGVDYTITGYAVTVEQNGRVLNTPISINYRT; false (0)
D11 (designed binder, 10Fn3 clone, Del 1-8) EVVAATPTSLLISWRHPHFPTRYYRITYGETGGNSPVQEFTVPLQPPTATISGLKPGVDYTITGYAVTVERNGHKLFTPISINYRT; false (0)
C3 (designed binder, 10Fn3 clone, Del 1-8) EVVAATPTSLLISWRHPHFPTRYYRITYGETGGNSPVQEFTVPLQPPTATISGLKPGVDYTITGYAVTLERNGRELMIPISINYRT; true (1)

Query string: Does Binding to 1 nM KDR, % meet or surpass 30% for A11 (designed binder, 10Fn3 clone, Del 1-8) EVVAATPTSLLISWRHPHFPTRYYRITYGETGGNSPVQEFTVPLQPPTATISGLKPGVDYTITGYAVTLEWNNRVLMTPISINYRT ?
Result string: false (0)

Query string: Param item: E3 (designed binder, 10Fn3 clone, Del 1-8) EVVAATPTSLLISWRHPHFPTRYYRITYGETGGNSPVQEFTVPLQPPTATISGLKPGVDYTITGYAVTDGRNDRKLMVPISINYRT
Result string: true (1)

Query string: Param item: D12 (designed binder, 10Fn3 clone, Del 1-8) EVVAATPTSLLISWRHPHFPTRYYRITYGETGGNSPVQEFTVPLQPPTATISGLKPGVDYTITGYAVTVERNGRKLMTPISINYRT
Result string: true (1)

Query string: Also need B7, B8 (designed binder, 10Fn3 clone, Del 1-8) EVVAATPTSLLISWRHPHFPTRYYRITYGETGGNSPVQEFTVPLQPPTATISGLKPGVDYTITGYAVTVERNGRELLTPISINYRT , thanks.
Result string: false (0)

Query string: Repeat for the following binder: D7 (designed binder, 10Fn3 clone, Del 1-8) EVVAATPTSLLISWRHPHFPTRYYRITYGETGGNSPVQEFTVPLQPPTATISGLKPGVDYTITGYAVTVERNGKVLMTPISINYRT
Result string: true (1)

Query string: // query: F10 (designed binder, 10Fn3 clone, Del 1-8) EVVAATPTSLLISWRHPHFPTRYYRITYGETGGNSPVQEFTVPLQPPTATISGLKPGVDYTITGYAVTMAPNGRELLTPISINYRT
Result string: false (0)
